Biological target: T1, orthogonal hCD122 receptor (hoRb), hCD122 with H133D and Y134F (human, UniProt P14784 27-550)
T1 sequence: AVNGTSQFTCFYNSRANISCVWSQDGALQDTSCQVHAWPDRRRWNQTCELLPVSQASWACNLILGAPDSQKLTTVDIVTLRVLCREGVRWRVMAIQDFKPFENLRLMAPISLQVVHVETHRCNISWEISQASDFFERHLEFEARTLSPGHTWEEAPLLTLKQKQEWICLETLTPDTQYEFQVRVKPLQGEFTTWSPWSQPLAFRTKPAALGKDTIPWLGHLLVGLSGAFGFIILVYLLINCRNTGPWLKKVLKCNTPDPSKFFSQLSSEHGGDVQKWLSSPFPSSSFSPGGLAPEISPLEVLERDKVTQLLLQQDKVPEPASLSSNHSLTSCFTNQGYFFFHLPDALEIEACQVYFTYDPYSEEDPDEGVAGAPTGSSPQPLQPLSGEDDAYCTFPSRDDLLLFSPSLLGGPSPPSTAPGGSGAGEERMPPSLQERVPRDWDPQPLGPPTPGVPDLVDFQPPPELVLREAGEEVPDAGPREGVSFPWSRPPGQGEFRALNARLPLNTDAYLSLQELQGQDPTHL
Experiment: cell-based or functional assay
propertyLabel: NKL Ortho Proliferation Signal 1:10

binder: M104A, SQVLKA (ligand) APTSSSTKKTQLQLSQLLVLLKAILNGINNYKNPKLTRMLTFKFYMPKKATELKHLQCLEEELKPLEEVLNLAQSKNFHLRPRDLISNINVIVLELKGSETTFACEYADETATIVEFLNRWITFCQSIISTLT
reportedMeasurement: 54800
//
binder: L80F, SQVLKA (ligand) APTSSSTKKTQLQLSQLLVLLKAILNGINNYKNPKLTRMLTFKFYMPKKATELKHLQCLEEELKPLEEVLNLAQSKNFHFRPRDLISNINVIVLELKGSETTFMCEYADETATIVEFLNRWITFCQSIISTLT
reportedMeasurement: 67800
